- ASSAY_TARGET: Type 1 fimbrin D-mannose specific adhesin (Escherichia coli K-12)
- ASSAY_METHOD_TEXT: Inhibition of Escherichia coli UTI89 FimH assessed as decrease in hemagglutination of guinea pig red blood cells after 4 to 18 hrs
We begin with a simple list: items and their reported log10 EC90.
In our notation, the value equals log10 of EC90 in nM.

>  <MOLECULE>
CNC(=O)c1cccc(-c2ccc(O[C@H]3O[C@H](CO)[C@@H](O)[C@H](O)[C@@H]3O)cc2)c1

>  <ASSAY_TARGET>
Type 1 fimbrin D-mannose specific adhesin (Escherichia coli K-12)

>  <RECORDED_RESULT>
2.70

$$$$
>  <MOLECULE>
COC(=O)c1cccc(-c2ccc(N[C@H]3O[C@H](CO)[C@@H](O)[C@H](O)[C@@H]3O)cc2)c1

>  <ASSAY_TARGET>
Type 1 fimbrin D-mannose specific adhesin (Escherichia coli K-12)

>  <RECORDED_RESULT>
3.60

$$$$
>  <MOLECULE>
CNC(=O)c1cccc(-c2ccc(C[C@H]3O[C@H](CO)[C@@H](O)[C@H](O)[C@@H]3O)cc2)c1

>  <ASSAY_TARGET>
Type 1 fimbrin D-mannose specific adhesin (Escherichia coli K-12)

>  <RECORDED_RESULT>
3.00

$$$$
>  <MOLECULE>
Cc1cc(-c2ccc3c(c2)C(=O)NCC3)ccc1[C@@H](O)[C@H]1O[C@H](CO)[C@@H](O)[C@H](O)[C@@H]1O

>  <ASSAY_TARGET>
Type 1 fimbrin D-mannose specific adhesin (Escherichia coli K-12)

>  <RECORDED_RESULT>
0.78

$$$$
>  <MOLECULE>
COC(=O)c1cccc(-c2ccc(NC(=O)[C@H]3O[C@H](CO)[C@@H](O)[C@H](O)[C@@H]3O)cc2)c1

>  <ASSAY_TARGET>
Type 1 fimbrin D-mannose specific adhesin (Escherichia coli K-12)

>  <RECORDED_RESULT>
4.20

$$$$

Could you tell me which log10 EC90 is on file for "Cc1cc(-c2cccc3cnccc23)ccc1O[C@H]1O[C@H](CO)[C@@H](O)[C@H](O)[C@@H]1O" ?
1.79

Another compound to look at: "CNC(=O)c1cccc(-c2ccc(C[C@H]3O[C@H](CO)[C@@H](O)[C@H](O)[C@@H]3O)c(C)c2)c1"
3.30

Another compound to look at: "O=C(NC[C@H]1O[C@H](CO)[C@@H](O)[C@H](O)[C@@H]1O)c1ccc(Br)cc1"
4.20

Another compound to look at: "CNC(=O)c1cccc(-c2ccc([C@@H](O)[C@H]3O[C@H](CO)[C@@H](O)[C@H](O)[C@@H]3O)c(C)c2)c1"
1.49

Another compound to look at: "CNC(=O)c1cccc(-c2ccc(O[C@H]3O[C@H](CO)[C@@H](O)[C@H](O)[C@@H]3O)c(C)c2)c1"
1.79

Another compound to look at: "COC(=O)c1cccc(-c2ccc(S[C@H]3O[C@H](CO)[C@@H](O)[C@H](O)[C@@H]3O)cc2)c1"
3.60

Another compound to look at: "Cc1cc(-c2ccc3cc[nH]c(=O)c3c2)ccc1[C@@H](O)[C@H]1O[C@H](CO)[C@@H](O)[C@H](O)[C@@H]1O"
0.90

Another compound to look at: "Cc1cc(-c2ccc3ccnc(N)c3c2)ccc1[C@@H](O)[C@H]1O[C@H](CO)[C@@H](O)[C@H](O)[C@@H]1O"
0.78
